Where these numbers come from: PubChem BioAssay (NCI)

test system: DU-145 prostate; assay: NCI-60 one-dose screen, 48 h; settings: 10 µM unless noted
The panel holds about 83,000 compounds, 20% with a hit somewhere; the sample as a whole holds those more often. The source made the active and inactive calls. How the source made its calls: active means growth percent below 10; inactive means the rest.
# valid calls are active, inactive; nothing else

Illustrative cases are given below, each with its answer.
CC(C)N=C1CCCC1C(=S)SSC(=S)C1CCCC1=NC(C)C (centres undefined) :: inactive
CCCNC(=S)N/N=C(\C)c1ccccn1 :: inactive
COC(=O)/C=C/c1cc(OC(C)=O)c2c(c1)[C@@H](C(=O)OC)[C@H](c1ccc(OC(C)=O)c(OC(C)=O)c1)O2 :: active
COc1cccc2nc(Nc3cccc(NC(=O)c4ccc(N5CCN(C)CC5)c(C(F)(F)F)c4)c3)ccc12 :: inactive

Per the records of this test, what outcome belongs to Cc1cc(C)cc(Nc2cc(C)nc3nc(C(F)(F)F)nn23)c1 ?
inactive

# repeat for O=C(/C=C/c1cccc([N+](=O)[O-])c1)c1ccc(Nc2nc(N3CCCCC3)nc(N3CCCCC3)n2)cc1
inactive
